B1: Pre-mRNA-processing factor 40 homolog B, residues 274 to 332; numbered along this chain, Q6NWY9 (parent)
chain: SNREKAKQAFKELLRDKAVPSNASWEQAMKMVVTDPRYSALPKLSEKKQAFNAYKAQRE

- Variants of: B1
- assay_text: abundance fitness (aPCA) (normalised: wild type 0, dead -1); higher = more abundant; growth selection in yeast, the domain comes from the species named
- protocol_conditions: Homo sapiens
Rule: abundance fitness under -0.4 gives N, otherwise Y.

QUERY: Record "K7V" ; criterion: abundance fitness no lower than -0.4. Met?
RESULT: Y

QUERY: Record "S39K" ; criterion: abundance fitness no lower than -0.4. Met?
RESULT: Y

QUERY: Record "E4K" ; criterion: abundance fitness no lower than -0.4. Met?
RESULT: Y

QUERY: Record "S45W" ; criterion: abundance fitness no lower than -0.4. Met?
RESULT: N

QUERY: Record "D35W" ; criterion: abundance fitness no lower than -0.4. Met?
RESULT: N

QUERY: Record "L44F" ; criterion: abundance fitness no lower than -0.4. Met?
RESULT: N

Please find the next variant below.
QUERY: Record "V32M" ; criterion: abundance fitness no lower than -0.4. Met?
RESULT: Y

Data credit: the Human Domainome abundance scans (Beltran et al. 2025)
